Entry source: patent US20040248804A1

# experimentSummary: Plasma leuprolide pharmacokinetics after IV, SQ and intranasal (IN) administration, five-way crossover volunteer trial, ELISA
# conditionDescription: female, human, in vivo, sc, 1 mg
observedProperty: Cmax (ng/mL)
Field: numeric (ng/mL). Do not append units.

Task: Query Cmax for CC(=O)O.CCNC(=O)[C@@H]1CCCN1C(=O)[C@H](CCCNC(=N)N)NC(=O)[C@H](CC(C)C)NC(=O)[C@@H](CC(C)C)NC(=O)[C@H](Cc1ccc(O)cc1)NC(=O)[C@H](CO)NC(=O)[C@H](Cc1c[nH]c2ccccc12)NC(=O)[C@H](Cc1c[nH]cn1)NC(=O)[C@@H]1CCC(=O)N1 [leuprolide]
Output: 35

====

# experimentSummary: clinical
# conditionDescription: female, human, in vivo, inhaled or intranasal, 2 mg
# Description: In the following example, the inventors sought to compare the intranasal (“IN”) administration of leuprolide using the methods and compositions of the invention with prior art methods of administration (subcutaneous (“SQ”) and intravenous (“IV”)).
observedProperty: bioavailability (%)
Field: numeric (%). Do not append units.

Task: Query bioavailability for CC(=O)O.CCNC(=O)[C@@H]1CCCN1C(=O)[C@H](CCCNC(=N)N)NC(=O)[C@H](CC(C)C)NC(=O)[C@@H](CC(C)C)NC(=O)[C@H](Cc1ccc(O)cc1)NC(=O)[C@H](CO)NC(=O)[C@H](Cc1c[nH]c2ccccc12)NC(=O)[C@H](Cc1c[nH]cn1)NC(=O)[C@@H]1CCC(=O)N1 [leuprolide]
Output: 14

====

# experimentSummary: clinical
# conditionDescription: female, human, in vivo, inhaled or intranasal, 1 mg
observedProperty: Cmax (ng/mL)
Field: numeric (ng/mL). Do not append units.

Task: Query Cmax for CC(=O)O.CCNC(=O)[C@@H]1CCCN1C(=O)[C@H](CCCNC(=N)N)NC(=O)[C@H](CC(C)C)NC(=O)[C@@H](CC(C)C)NC(=O)[C@H](Cc1ccc(O)cc1)NC(=O)[C@H](CO)NC(=O)[C@H](Cc1c[nH]c2ccccc12)NC(=O)[C@H](Cc1c[nH]cn1)NC(=O)[C@@H]1CCC(=O)N1 [leuprolide, acetate salt]
Output: 5

====

# experimentSummary: clinical
# conditionDescription: female, human, in vivo, inhaled or intranasal, 1 mg
observedProperty: AUC (ng·h/mL)
Field: numeric (ng·h/mL). Do not append units.

Task: Query AUC for CC(=O)O.CCNC(=O)[C@@H]1CCCN1C(=O)[C@H](CCCNC(=N)N)NC(=O)[C@H](CC(C)C)NC(=O)[C@@H](CC(C)C)NC(=O)[C@H](Cc1ccc(O)cc1)NC(=O)[C@H](CO)NC(=O)[C@H](Cc1c[nH]c2ccccc12)NC(=O)[C@H](Cc1c[nH]cn1)NC(=O)[C@@H]1CCC(=O)N1 [leuprolide, acetate salt]
Output: 15

====

# experimentSummary: clinical
# conditionDescription: female, human, in vivo, inhaled or intranasal, 1 mg
observedProperty: bioavailability
Answers without a unit are incomplete; give the number and then its unit.

Task: Query bioavailability for CC(=O)O.CCNC(=O)[C@@H]1CCCN1C(=O)[C@H](CCCNC(=N)N)NC(=O)[C@H](CC(C)C)NC(=O)[C@@H](CC(C)C)NC(=O)[C@H](Cc1ccc(O)cc1)NC(=O)[C@H](CO)NC(=O)[C@H](Cc1c[nH]c2ccccc12)NC(=O)[C@H](Cc1c[nH]cn1)NC(=O)[C@@H]1CCC(=O)N1 [leuprolide]
Output: 13%
